Test system: SF-295
protocol.details: NCI tumour cell line growth inhibition, 48 h
Activity calls are given as the source filed them. No stated cut-off is given here; in the data, active = GI50 up to about 1.1 µM and inactive = higher.
I would appreciate it if you answered using one of these outcomes: active, inactive

Some solved entries appear below for comparison.
INSERT INTO assay_data (molecule, category_label) VALUES
  ('N#CC(c1cc2c(cc1Br)OCO2)N1CCOCC1 (stereo unspecified)', 'inactive'),
  ('Cc1sc2[nH]c(=O)oc(=O)c2c1C', 'inactive'),
  ('COc1ccc(/N=C2\C(=O)C3=C(OC(C)(C)CC3)c3ccccc32)cc1', 'active'),
  ('O=C(O)/C=C\C(=O)Nc1ccc(S(=O)(=O)c2ccc(NC(=O)/C=C\C(=O)O)cc2)cc1', 'inactive'),
  ('O=C(CC1(O)C(=O)Nc2c(Cl)cc(Cl)cc21)c1ccc(F)cc1 (stereo unspecified)', 'inactive');

# next molecule below
Per the records of this test, what outcome belongs to NCCCNCCS ?
inactive

* * *

Tested on: MDA-MB-435
protocol.details: NCI tumour cell line growth inhibition, 48 h
Active and inactive are the calls of the source. No stated cut-off is given here; in the data, active = GI50 up to about 1.1 µM and inactive = higher.
I would appreciate it if you answered using one of these outcomes: class 1 = active, class 0 = inactive

Some solved entries appear below for comparison.
INSERT INTO assay_data (compound, category_label) VALUES
  ('CN(C)CCCNCc1cccc2ccccc12', 'class 0'),
  ('O=[N+]([O-])/C=C\c1c[nH]c2ccc(OCc3ccccc3)cc12', 'class 0'),
  ('Cc1ccc([N+](=O)[O-])cc1NC(=O)C(=O)C1CCC2=C(Sc3ccccc3N2)C1=O (stereo not drawn)', 'class 0'),
  ('COc1c2c(cc3c1-c1c(cc4c(c1OC)OCO4)C1OC3C(C)C1C)OCO2.COc1cc2c(c(OC)c1OC)-c1c(cc3c(c1OC)OCO3)C1OC2C(C)C1C (stereo not drawn)', 'class 0');

# next compound below
Per the records of this test, what outcome belongs to O=C1c2ccccc2-c2c1c(-c1ccc(F)cc1)nc1ccc3ccccc3c21 ?
class 0

* * *

Reported GI50 values for a set of compounds
System: CAKI-1
protocol.details: NCI tumour cell line growth inhibition, 48 h
The source made the active and inactive calls. Cut-off read from the data, not from the text of the source: active = GI50 up to about 1.1 µM and inactive = higher.

Use these answered entries as a reference point.
INSERT INTO assay_data (chem_smiles, result) VALUES
  ('COc1cccc(/C=C2\CCCCCC2=O)c1', '> 100 µM (inactive)'),
  ('O=C1Nc2ccc(Br)cc2/C1=N/NC(=S)Nc1ccc([N+](=O)[O-])cc1', '4.06 µM (inactive)'),
  ('CN(C)C(=O)Oc1ccc(C(=S)Nc2ccccc2)cc1', '> 100 µM (inactive)'),
  ('COc1cc2c(cc1OCCCOc1cc(-c3ccc(F)cc3)nc(C)n1)N=C[C@@H]1CCCN1C2=O', '17.5 µM (inactive)'),
  ('Cc1ccc2nc(-c3ccc(-n4c(C)nc(=O)c(-c5ccc(F)cc5)c4C)cc3)sc2c1', '17.8 µM (inactive)');

What measured GI50 goes with COC(C/C(=C/CO[Si](C(C)C)(C(C)C)C(C)C)C(=O)N(COCC[Si](C)(C)C)c1ccccc1I)OC ?
> 100 µM (inactive)

* * *

System: OVCAR-3
protocol.details: NCI tumour cell line growth inhibition, 48 h
Active and inactive are the calls of the source. Cut-off read from the data, not from the text of the source: active = GI50 up to about 1.1 µM and inactive = higher.
I would appreciate it if you answered using one of these outcomes: active, inactive

INSERT INTO results (molecule, category_label) VALUES
  ('CC1(C)C(O)C[C@@H](O)[C@@]2(C)C1CC[C@]1(C)C2C[C@@H](O)[C@@H]2C([C@@]3(C)CC[C@@H](C(C)(C)O)O3)CCC21C (stereo partly drawn)', 'inactive'),
  ('Nc1nc(SCCNC(=O)CCc2ccc(O)c(I)c2)nc2c1ncn2C1OC(CO)C(O)C1O (stereo not drawn)', 'inactive'),
  ('OCCOCCO[P+]1(OCCOCCO)n2c3ccc2C(c2ccccc2)=C2C=CC(=N2)C(c2ccccc2)=c2ccc(n21)=C(c1ccccc1)C1=NC(=C3c2ccccc2)C=C1', 'active'),
  ('Cc1ccc([N+](=O)[O-])cc1NC(=O)C(=O)C1CCC2=C(Sc3ccccc3N2)C1=O (stereo not drawn)', 'inactive'),
  ('COC(=O)c1c(O)c2c(c3c1OC(C)(C)CC3)OC(C)(C)CC2', 'inactive');

Per the records of this test, what outcome belongs to OC1CC2CCC(C1)N2CCCN1c2ccccc2Sc2ccc(Cl)cc21 (stereo not drawn) ?
inactive

Same question, C/C=C1\CN2CCc3c([nH]c4ccccc34)C2CC1C(=O)OC (stereo not drawn) this time
inactive

Same question, CN(C)c1ccc(/C=C(\NC(=O)c2ccccc2)C(=O)NCC(=O)O)cc1 this time
inactive

Same question, O=S(=O)(Nc1nccs1)c1ccc(Nc2nc(-c3cccs3)nc3ccc(I)cc23)cc1 this time
inactive

Same question, CCN(CC)CCOC(c1ccccc1)c1ccccc1.CCOC(=O)Nc1ccc(S(=O)(=O)NCCCl)cc1.CCOC(=O)Nc1ccc(S(=O)(=O)NCCCl)cc1.Nc1ccc(C(=O)O)c(O)c1 this time
inactive

Same question, CCC1(OC(C)=O)C(=O)OCc2c1cc1n(c2=O)Cc2cc3ccccc3nc2-1 (stereo not drawn) this time
inactive
